# target-or-system: human FcγRI (human)
# experiment-summary: fluorescent staining of FcγRI transfectants, flow cytometry
A collection of substances and their measured fold reduction of binding against the parent subclass

Record excerpt, results attached:
CAMPATH-1 G1Δab (antibody)    > 10000 fold
CAMPATH-1 G4Δb (antibody)    > 10000 fold
CAMPATH-1 G1Δc (antibody)    > 10000 fold

Data request: What reported fold reduction of binding against the parent subclass corresponds to CAMPATH-1 G1Δb (antibody) on human FcγRI (human)?
Data returned: > 10000 fold

Data request: What reported fold reduction of binding against the parent subclass corresponds to CAMPATH-1 G4Δc (antibody) on human FcγRI (human)?
Data returned: > 10000 fold

Data request: What reported fold reduction of binding against the parent subclass corresponds to CAMPATH-1 G1Δac (antibody) on human FcγRI (human)?
Data returned: > 10000 fold
